Assignment: determine reported viability for the given compounds.
assay overview: HUVEC growth inhibition – cell-based, human, primary screen (AID 575);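 also: 100% = median of untreated cell wells with 0.1% DMSO on each plate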
details: HUVEC proliferation, CellTiter-Glo luminescence, 72 h; at 10 µM; stronger effect = lower value
Report as a plain number; the unit % is understood.

// query Give the measured viability of O=C(O)C(c1ccccc1)N1CCCC1 (centres undefined) .
// result 102

// query Input O=C(C1CCCO1)N1CCN(C(c2ccccc2)c2ccccc2)CC1 (centres undefined)
// result 89.1

// query Input Cc1ccc(CNC(=O)C2CCN(S(=O)(=O)c3cccs3)CC2)o1
// result 89.5

// query Input O=C(Cn1c(NCCO)nc2ccccc21)c1ccccc1
// result 99.6

// query Input NS(=O)(=O)c1cc2c(cc1C(F)(F)F)NCNS2(=O)=O
// result 91

// query Input CC(O)c1cc2c(cc1NC(=O)c1cnn3c1NC(c1ccco1)CC3C(F)(F)F)OCO2 (centres undefined)
// result 97.2

// query Input CCN(C(=O)CN1CCN(c2ccccc2OC)CC1)c1c(N)n(Cc2ccccc2)c(=O)[nH]c1=O
// result 98.7

// query Input Cc1nc(-c2ccc(NC(=O)c3cccs3)cc2)cs1
// result 58.8

// query Input CC1Cc2ccccc2N1C(=O)CSc1nc2ccccc2n1CC(=O)N1CCOCC1 (centres undefined)
// result 94

// query Input Cc1cc(Cl)c(S(=O)(=O)Nc2ccc3c(c2)OCCO3)cc1OCC(N)=O
// result 107

// query Input N#Cc1c(N)n(CCOC(=O)c2cccc(Br)c2)c2nc3ccccc3nc12
// result 75.6

// query Input COc1ccccc1C(=O)Nc1nc2ccc(S(C)(=O)=O)cc2s1
// result 93.5

// query Input CCOC(=O)C1/C(=N\O)CC(C)(O)C(C(=O)OCC)C1c1ccc(N(C)C)cc1 (centres undefined)
// result 96.9

// query Input CCCCN1C(=O)C2C(C(=O)Nc3cccc(OC)c3)C3C=CC2(O3)C1C(=O)NC1CCCCC1C (centres undefined)
// result 82.7
